# Target Desc: 5-hydroxytryptamine receptor 1A (Homo sapiens) (UniProt P08908)
# Sequence (P08908 whole entry, looked up): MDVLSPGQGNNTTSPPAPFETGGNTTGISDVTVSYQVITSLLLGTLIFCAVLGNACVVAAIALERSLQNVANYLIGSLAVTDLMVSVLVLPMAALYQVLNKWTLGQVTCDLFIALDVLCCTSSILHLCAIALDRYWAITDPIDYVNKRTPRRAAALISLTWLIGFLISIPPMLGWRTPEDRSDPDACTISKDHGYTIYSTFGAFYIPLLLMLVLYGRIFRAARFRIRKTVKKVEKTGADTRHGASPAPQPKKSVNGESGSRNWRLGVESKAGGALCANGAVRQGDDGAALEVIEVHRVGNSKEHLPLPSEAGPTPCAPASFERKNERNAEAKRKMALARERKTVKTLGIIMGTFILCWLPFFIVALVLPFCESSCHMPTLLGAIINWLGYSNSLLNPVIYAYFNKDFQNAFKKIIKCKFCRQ
# Assay Summary: agonism at serotonin HTR1A receptor – cell-based, CHO, Ga15 NFAT-bla reporter, primary screen (AID 567);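 also: 0% = DMSO wells and 100% = 5-CT at EC100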
# Condition Notes: CHO 5-HT1a Ga15 NFAT-bla reporter, FRET ratio; at 10 µM; stronger effect = higher value; 0% basal, 100% maximal reference agonist
Hit rate of the full screen: of about 65,000 compounds, about 370 (0.57%) were called active. What follows is part of a selection rich in actives, with near analogues and random picks from the rest.
Measured activation accompanies every entry in the list below.
Hi! Could you send only the number? It should be in %, unit omitted.

Inquiry: Consider the compound CCCNS(=O)(=O)c1ccc(CCC(=O)NCc2cccnc2)cc1 . State its measured activation.
Reply text: 0.51

Inquiry: Given CN(C)c1ccc(NC(=O)c2ccncc2)c2ccccc12 , respond with its activation.
Reply text: -2.38

Inquiry: Provide only the value of recorded activation for Cc1cc(NC(=O)Cn2nc(C(F)(F)F)c3c2CCCC3)no1
Reply text: -1.46

Inquiry: Determine its reported activation: Cc1csc(NC(=O)NC2(C(F)(F)F)Oc3ccccc3O2)n1
Reply text: 1.56

Inquiry: Tell us which activation value is on record for CCn1c(CNC(=O)c2ccc(OC)c(OC)c2)nnc1SCC(=O)Nc1ccccc1
Reply text: 1.92

###

# Target Desc: 5-hydroxytryptamine receptor 1A (Homo sapiens) (UniProt P08908)
# Assay Summary: agonism at serotonin HTR1A receptor – cell-based, CHO, Ga15 NFAT-bla reporter, primary screen (AID 567);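 also: 0% = DMSO wells and 100% = 5-CT at EC100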
# Condition Notes: CHO 5-HT1a Ga15 NFAT-bla reporter, FRET ratio; at 10 µM; stronger effect = higher value; 0% basal, 100% maximal reference agonist
The campaign covered roughly 65,000 compounds. About 370 (0.57%) were called active. This excerpt belongs to a sample that is enriched for actives.
Readout: activation (%)
Field: numeric (%). Do not append units.

Compound	Readout	Units Of Measure	Measured Value
CNC(=O)c1nnn(-c2ccccc2)c1C(=O)NC	activation	%	-1.73
CCCOC(=O)c1[nH]c2c(c1C)C(=O)CC(c1cc(OC)c(OC)c(OC)c1)C2 (configuration not stated)	activation	%	-1.49
O=C(Nc1ccc(Cl)cn1)Nc1cccs1	activation	%	-4.12
CCCOC(=O)c1cc2ccccc2oc1=O	activation	%	-1.25
CC(=O)Cc1nsc(NC(=O)c2csc3c2CCCC3)n1	activation	%	0.34
Fc1ccc(Cn2nnnc2C(c2cccs2)N2CCCCCC2)cc1 (configuration not stated)	activation	%	-2.4
COc1ccc(-c2nnc(SCC(=O)NC3CCCCC3)o2)cc1OC	activation	%	-1.36
O=c1c(-c2ccc3c(c2)OCCO3)c(C(F)(F)F)oc2cc(O)cc(O)c12	activation	%	2.15
O=C(CCCC(=O)N(CC(=O)NC1CCCC1)Cc1ccccc1Cl)Nc1ccccn1	activation	%	0.54
CN(C)c1cc[n+](Cc2ccccc2)cc1	activation	%	0.31

Inquiry: Fill in activation for record O=C(COc1ccc(S(=O)(=O)NCCc2ccccc2)cc1)N1CCCC1
Reply text: -3.17

Inquiry: Note down activation recorded for O=C(O)CCCC(=O)Nc1ccccc1-n1ccnc1
Reply text: -6.2

###

# Target Desc: 5-hydroxytryptamine receptor 1A (Homo sapiens)
# Assay Summary: agonism at serotonin HTR1A receptor – cell-based, CHO, Ga15 NFAT-bla reporter, primary screen (AID 567);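 also: 0% = DMSO wells and 100% = 5-CT at EC100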
# Condition Notes: CHO 5-HT1a Ga15 NFAT-bla reporter, FRET ratio; at 10 µM; 0% basal, 100% maximal reference agonist
The whole screen tested about 65,000 compounds, of which about 370 (0.57%) were called active.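 How the source made its calls: active means activation above the screen-wide mean activation plus 3 SD (cut at about 19% in these data); inactive means the rest.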 This excerpt belongs to a sample that is enriched for actives.
API: response.call in active, inactive

Compound	Assigned Category
CCOC(=O)C(C)Oc1cccc2c(=O)n(CC(=O)N3CCc4ccccc43)ccc12 (stereo not given)	inactive

Inquiry: Recorded test call requested for CCOC(=O)Cn1c(=O)oc2cc(S(=O)(=O)N(C)Cc3ccco3)ccc21
Reply text: inactive

###

# Target Desc: 5-hydroxytryptamine receptor 1A (Homo sapiens) (UniProt P08908)
# Assay Summary: agonism at serotonin HTR1A receptor – cell-based, CHO, Ga15 NFAT-bla reporter, primary screen (AID 567);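 also: 0% = DMSO wells and 100% = 5-CT at EC100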
# Condition Notes: CHO 5-HT1a Ga15 NFAT-bla reporter, FRET ratio; at 10 µM; 0% basal, 100% maximal reference agonist
The whole screen tested about 65,000 compounds, of which about 370 (0.57%) were called active.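 Rule for the calls: active = activation above the screen-wide mean activation plus 3 SD (cut at about 19% in these data); inactive = the rest.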 Shown is part of a subset that was picked to be rich in actives.
Could you please pick one outcome from this set? Y (active), N (inactive)

Solved entries:
Compound	Target Desc	Assigned Category
Cn1c(=O)c2c(ncn2CC(=O)N2CCN(c3ccccc3)CC2)n(C)c1=O	5-hydroxytryptamine receptor 1A (Homo sapiens) (UniProt P08908)	N
COc1cccc(C2/C(=C(/O)c3ccncc3)C(=O)C(=O)N2CCCN(C)C)c1 (stereo unspecified)	5-hydroxytryptamine receptor 1A (Homo sapiens) (UniProt P08908)	N
CC(C)Cn1c(N)c(C(=O)NCc2cccs2)c2nc3ccccc3nc21	5-hydroxytryptamine receptor 1A (Homo sapiens) (UniProt P08908)	Y
CC(=O)c1ccc(N2C(=NC(=O)C(C)C)SC3CS(=O)(=O)CC32)cc1 (stereo unspecified)	5-hydroxytryptamine receptor 1A (Homo sapiens) (UniProt P08908)	N
O=C(NCc1ccco1)c1ccc(CS(=O)(=O)Cc2ccc(F)cc2)o1	5-hydroxytryptamine receptor 1A (Homo sapiens) (UniProt P08908)	N

Inquiry: Tell me the recorded outcome of this test for CN(C)/C=C1/Nc2ccccc2C1=O .
Reply text: N

Inquiry: For CCOC(=O)Cc1csc(NC(=O)CSc2nc(C)cc(=O)[nH]2)n1 , what call appears in the results of this test?
Reply text: N

Inquiry: Please state the recorded outcome for this compound: CCc1c(C)nc(N2CCN(Cc3ccccc3)CC2)[nH]c1=O
Reply text: N

###

# Target Desc: 5-hydroxytryptamine receptor 1A (Homo sapiens)
# Assay Summary: agonism at serotonin HTR1A receptor – cell-based, CHO, Ga15 NFAT-bla reporter, primary screen (AID 567);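 also: 0% = DMSO wells and 100% = 5-CT at EC100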
# Condition Notes: CHO 5-HT1a Ga15 NFAT-bla reporter, FRET ratio; at 10 µM; 0% basal, 100% maximal reference agonist
Hit rate of the full screen: of about 65,000 compounds, about 370 (0.57%) were called active.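 The calls were made as follows: active = activation above the screen-wide mean activation plus 3 SD (cut at about 19% in these data); inactive = the rest.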 What follows is part of a selection rich in actives, with near analogues and random picks from the rest.
Lab note: assign the record to one of active, inactive

Solved entries (count: 4):
Compound	Target Desc	Assigned Category
c1ccc2cc(OCCN3CCCC3)ccc2c1	5-hydroxytryptamine receptor 1A (Homo sapiens)	inactive
O=C(c1ccc(S(=O)(=O)N2CCOCC2)cc1)N1CCN(c2ccccc2)CC1	5-hydroxytryptamine receptor 1A (Homo sapiens)	inactive
COc1ccccc1N1CC(O)=C(c2nc3ccccc3s2)C1=N	5-hydroxytryptamine receptor 1A (Homo sapiens)	inactive
CCOC(=O)N1CCC(NC(=O)C(C)n2c3ccccc3c3cnn(C)c(=O)c32)CC1 (stereo not given)	5-hydroxytryptamine receptor 1A (Homo sapiens)	inactive

Inquiry: How was O=C(CS(=O)(=O)c1cn(Cc2cccc(F)c2)c2ccccc12)N1CCCCC1 classified in this test?
Reply text: inactive

Inquiry: Identify the outcome logged in this assay for the compound shown: COc1ccc(O)c(C=Nc2cc(C)on2)c1
Reply text: inactive

Inquiry: Hi team, can someone confirm the assay call for CCCS(=O)(=O)Nc1c(C(=O)O)[nH]c2ccccc12 ?
Reply text: inactive

Inquiry: What outcome does the record of this test show for O=C1CCC(Cc2ccccc2)N1 (stereo not given) ?
Reply text: inactive

Inquiry: What did the test return for O=C(NC1CCCCC1)n1c(=O)oc2cc(S(=O)(=O)N3CCCCC3)ccc21 ?
Reply text: inactive

Inquiry: // return assay outcome for COCCCn1c2nc3ccccc3nc2c2c(=O)n(Cc3ccc(Cl)cc3)c(C)nc21
Reply text: inactive

Inquiry: Outcome? N#Cc1c(N)n(CCOC(=O)c2ccc(Cl)cc2)c2nc3ccccc3nc12
Reply text: active

Inquiry: Field: outcome | Entry: CN(C)S(=O)(=O)c1ccc(Oc2ccc(S(=O)(=O)N(C)C)cc2)cc1
Reply text: inactive

Inquiry: Identify the outcome logged in this assay for the compound shown: O=c1c2ccccc2oc2nc3n(c(=O)c12)CCCS3
Reply text: inactive

###

# Target Desc: 5-hydroxytryptamine receptor 1A (Homo sapiens) (UniProt P08908)
# Assay Summary: agonism at serotonin HTR1A receptor – cell-based, CHO, Ga15 NFAT-bla reporter, primary screen (AID 567);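 also: 0% = DMSO wells and 100% = 5-CT at EC100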
# Condition Notes: CHO 5-HT1a Ga15 NFAT-bla reporter, FRET ratio; at 10 µM; stronger effect = higher value; 0% basal, 100% maximal reference agonist
The campaign covered roughly 65,000 compounds. About 370 (0.57%) were called active. This excerpt belongs to a sample that is enriched for actives.
Listed here: items and their measured activation.
Please state the figure in %; there is no need to write the unit.

Take a look at these entries with their results.
Molecule	Units Of Measure	activation
CC(=O)NS(=O)(=O)c1ccccc1	%	-2.33
CCC(=O)Nc1ccccc1C(=O)N1CCN(Cc2ccccc2)CC1	%	-6.46
c1cnn(-c2cc(N3CCOCC3)ncn2)c1	%	42

Inquiry: State its activation: CCOc1ccccc1C1C(C(=O)OC)=CN(C)C=C1C(=O)OC
Reply text: 20.1

Inquiry: Return reported activation. Input molecule: O=C(Cn1cnc2c(nnn2Cc2ccc(F)cc2)c1=O)NCc1ccc2c(c1)OCO2
Reply text: -1.47

Inquiry: Quote activation reported for O=S(=O)(Nc1ccccn1)c1ccc(Oc2ccccc2)cc1 please.
Reply text: 0.59
